These entries and their values trace back to ChEMBL document CHEMBL4483862.

Test system: Plasmodium berghei
Experiment: Luciferase/luciferin-expressing antifolate-resistant parasites were used to infect a culture of HepG2 cells that were pre-incubated with compounds. Infected hepatocytes emit light due to the luciferase reaction. Assay results are presented as the percent inhibition of light emission compared to control. […]
Assay type: functional
Conditions: sporozoite, PBLUC_HILL_SLOPE 5.44, PBLUC_R_SQUARED 0.0706, read-out: LUCIFERASE INFECTION ASSAY - IC50
quantityMeasured: pIC50
// pIC50: -log10(molar conc.)

pIC50 value, target or system Plasmodium berghei, for Cc1nn(Cc2ccccc2Cl)c(C)c1C(=O)Nc1nc(-c2ccccn2)cs1 : 5.36
